This collection of values is drawn from the supplement of paper PMC10567573.

B1: EIF5 (parent)
chain: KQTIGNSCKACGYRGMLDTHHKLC

# Variants of: B1
# method_description: protein stability index of a GFP-peptide fusion (GPS, HEK-293T) (PSI 1-6); higher = more stable;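 also: lentivirally expressed fusions sorted by FACS into six bins by GFP to DsRed ratio, PSI derived from sequencing read proportions per bin multiplied by bin number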
# condition_details: c terminus: a fixed tail appended
Reported protein stability index values for the following variants.
// print number alone

Consider the worked cases shown below.
- entry_sequence: "KRTIGNSCKACGYRGMLDTHHKLC [Q2R]"
  measured_result: 2.56
- entry_sequence: "KQTIGNSCKACGYRGMLDTFHKLC [H20F]"
  measured_result: 2.07
- entry_sequence: "KQTIGNSKKACGYRGMLDTHHKLC [C8K]"
  measured_result: 2.28
- entry_sequence: "KQIIGNSCKACGYRGMLDTHHKLC [T3I]"
  measured_result: 2.71

Alright, here's another variant for you.
Problem: Request the reported protein stability index associated with KQTIGNSCKACGKRGMLDTHHKLC [Y13K]
Solution: 3.97
